System: PWR-1E
protocolNotes: Antiproliferative activity against human PWR-1E cells expressing androgen receptor and PSA assessed as decrease in cell viability after 3 days by WST assay
Type: functional, cell-based
conditionNotes: 72 h
Attribute: IC50
Value expressed in nM; do not type the unit.

CCC(C)n1ccnc1/C=C/C(=O)/C=C/c1cccc(C)n1 (stereo unspecified); 130
CCn1c(/C=C/C(=O)/C=C/c2sc(C)nc2C(F)(F)F)nc2ccccc21; 80
CCC(C)n1ccnc1/C=C/C(=O)/C=C/c1cc(C)on1 (stereo unspecified); 110
CCCn1ccnc1/C=C/C(=O)/C=C/c1nc2ccccc2n1CCC; 20
CC(C)n1c(/C=C/C(=O)/C=C/c2ccccn2)nc2ccccc21; 10
CCCn1c(/C=C/C(=O)/C=C/c2ccccn2)nc2ccccc21; 20
CCCC(C)n1ccnc1/C=C/C(=O)/C=C/c1nc2ccccc2n1C(C)CCC (stereo unspecified); 40
COc1cc(/C=C/C(=O)CC(=O)/C=C/c2ccc(O)c(OC)c2)ccc1O [CURCUMIN]; 8850
CCC(C)n1ccnc1/C=C/C(=O)/C=C/c1ccccn1 (stereo unspecified); 170
Cn1cc(Br)c(/C=C/C(=O)/C=C/c2ccccn2)n1; 100

# ---- query compound ----
# input compound: CCC(C)n1ccnc1/C=C/C(=O)/C=C/c1nccs1 (stereo unspecified) ; wanted: its IC50 140
